- target: Factor X (FX), P00742
- Sequence (P00742 whole entry, looked up): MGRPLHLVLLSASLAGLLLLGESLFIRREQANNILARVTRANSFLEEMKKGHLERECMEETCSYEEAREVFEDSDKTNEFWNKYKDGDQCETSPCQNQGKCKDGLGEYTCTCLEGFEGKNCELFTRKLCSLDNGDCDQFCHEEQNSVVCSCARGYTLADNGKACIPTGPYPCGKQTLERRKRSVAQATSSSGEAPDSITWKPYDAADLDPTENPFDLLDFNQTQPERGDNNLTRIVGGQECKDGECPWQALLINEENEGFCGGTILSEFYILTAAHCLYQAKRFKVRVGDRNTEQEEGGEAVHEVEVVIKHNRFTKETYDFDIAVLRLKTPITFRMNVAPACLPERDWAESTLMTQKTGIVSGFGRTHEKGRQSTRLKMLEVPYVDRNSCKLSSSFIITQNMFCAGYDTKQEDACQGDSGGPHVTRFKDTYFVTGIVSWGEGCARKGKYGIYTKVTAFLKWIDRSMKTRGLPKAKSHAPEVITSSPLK
For each of the proteins below, state its KM.
The response must be a number in µM with no trailing unit.

Item under review: FIXa-Y155F/K228N/I251S/R318Y/R338E/R403E/E410N (protein) chain 1: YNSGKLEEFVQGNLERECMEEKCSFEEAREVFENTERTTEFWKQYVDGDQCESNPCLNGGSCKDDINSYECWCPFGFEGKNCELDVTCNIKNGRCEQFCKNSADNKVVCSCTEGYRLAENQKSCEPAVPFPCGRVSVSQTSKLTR chain 2: VVGGEDAKPGQFPWQVVLNGKVDAFCGGSIVNEKWIVTAAHCVETGVNITVVAGEHNIEETEHTEQKRNVSRIIPHHNYNAAINKYNHDIALLELDEPLVLNSYVTPICIADKEYTNIFLKFGSGYVSGWGRVFHKGYSALVLQYLRVPLVDRATCLESTKFTIYNNMFCAGFHEGGRDSCQGDSGGPHVTEVEGTSFLTGIISWGEECAMKGKYGIYTKVSEYVNWIKNKTKLT . Reported KM?
0.0393

What do you get for FIXa-D104N/K106S/Y155F/K247N/N249S/N260S (protein) chain 1: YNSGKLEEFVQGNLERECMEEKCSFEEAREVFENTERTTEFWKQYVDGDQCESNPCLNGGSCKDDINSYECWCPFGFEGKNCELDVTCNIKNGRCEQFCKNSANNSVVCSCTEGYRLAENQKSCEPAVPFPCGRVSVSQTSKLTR chain 2: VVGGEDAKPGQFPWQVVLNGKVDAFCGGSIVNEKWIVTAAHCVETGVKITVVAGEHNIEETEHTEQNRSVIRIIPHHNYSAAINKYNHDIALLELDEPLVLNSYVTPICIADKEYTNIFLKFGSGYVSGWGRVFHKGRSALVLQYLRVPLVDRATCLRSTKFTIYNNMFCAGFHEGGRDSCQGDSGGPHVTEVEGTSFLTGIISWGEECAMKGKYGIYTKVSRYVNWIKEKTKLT ?
0.0685

What do you get for FIXa K228N/R318Y/E410N (protein) chain 1: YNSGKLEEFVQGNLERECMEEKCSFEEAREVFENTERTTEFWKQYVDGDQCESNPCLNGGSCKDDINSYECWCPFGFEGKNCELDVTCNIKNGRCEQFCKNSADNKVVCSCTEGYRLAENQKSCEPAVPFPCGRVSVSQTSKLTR chain 2: VVGGEDAKPGQFPWQVVLNGKVDAFCGGSIVNEKWIVTAAHCVETGVNITVVAGEHNIEETEHTEQKRNVIRIIPHHNYNAAINKYNHDIALLELDEPLVLNSYVTPICIADKEYTNIFLKFGSGYVSGWGRVFHKGYSALVLQYLRVPLVDRATCLRSTKFTIYNNMFCAGFHEGGRDSCQGDSGGPHVTEVEGTSFLTGIISWGEECAMKGKYGIYTKVSRYVNWIKNKTKLT ?
0.042

What do you get for FIXa-Y155F/K228N/K247N/N249S/R318Y/R338E/T343R/R403E/E410N (protein) chain 1: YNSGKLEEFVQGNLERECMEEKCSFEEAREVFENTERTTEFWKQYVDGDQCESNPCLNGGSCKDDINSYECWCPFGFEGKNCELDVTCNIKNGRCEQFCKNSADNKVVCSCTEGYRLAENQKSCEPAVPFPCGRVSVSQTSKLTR chain 2: VVGGEDAKPGQFPWQVVLNGKVDAFCGGSIVNEKWIVTAAHCVETGVNITVVAGEHNIEETEHTEQNRSVIRIIPHHNYNAAINKYNHDIALLELDEPLVLNSYVTPICIADKEYTNIFLKFGSGYVSGWGRVFHKGYSALVLQYLRVPLVDRATCLESTKFRIYNNMFCAGFHEGGRDSCQGDSGGPHVTEVEGTSFLTGIISWGEECAMKGKYGIYTKVSEYVNWIKNKTKLT ?
0.0368

What do you get for FIXa-Y155F/I251S/R338E/T343R/R403E (protein) chain 1: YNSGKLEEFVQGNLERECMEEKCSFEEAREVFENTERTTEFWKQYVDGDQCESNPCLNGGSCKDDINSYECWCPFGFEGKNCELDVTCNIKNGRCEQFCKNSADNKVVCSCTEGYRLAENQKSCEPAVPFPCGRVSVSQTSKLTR chain 2: VVGGEDAKPGQFPWQVVLNGKVDAFCGGSIVNEKWIVTAAHCVETGVKITVVAGEHNIEETEHTEQKRNVSRIIPHHNYNAAINKYNHDIALLELDEPLVLNSYVTPICIADKEYTNIFLKFGSGYVSGWGRVFHKGRSALVLQYLRVPLVDRATCLESTKFRIYNNMFCAGFHEGGRDSCQGDSGGPHVTEVEGTSFLTGIISWGEECAMKGKYGIYTKVSEYVNWIKEKTKLT ?
0.0196

What do you get for FIXa-Y155F/K247N/N249S/R318Y/T343R/R403E (protein) chain 1: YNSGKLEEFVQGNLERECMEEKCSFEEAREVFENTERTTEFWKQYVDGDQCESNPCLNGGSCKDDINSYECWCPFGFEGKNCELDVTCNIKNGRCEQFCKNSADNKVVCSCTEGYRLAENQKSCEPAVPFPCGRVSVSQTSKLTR chain 2: VVGGEDAKPGQFPWQVVLNGKVDAFCGGSIVNEKWIVTAAHCVETGVKITVVAGEHNIEETEHTEQNRSVIRIIPHHNYNAAINKYNHDIALLELDEPLVLNSYVTPICIADKEYTNIFLKFGSGYVSGWGRVFHKGYSALVLQYLRVPLVDRATCLRSTKFRIYNNMFCAGFHEGGRDSCQGDSGGPHVTEVEGTSFLTGIISWGEECAMKGKYGIYTKVSEYVNWIKEKTKLT ?
0.0605

What do you get for FIXa R318Y/R338E/R403E/E410N (protein) chain 1: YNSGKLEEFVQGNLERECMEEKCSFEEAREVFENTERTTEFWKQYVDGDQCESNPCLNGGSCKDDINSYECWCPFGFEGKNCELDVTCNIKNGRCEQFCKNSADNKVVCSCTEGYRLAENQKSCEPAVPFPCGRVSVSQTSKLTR chain 2: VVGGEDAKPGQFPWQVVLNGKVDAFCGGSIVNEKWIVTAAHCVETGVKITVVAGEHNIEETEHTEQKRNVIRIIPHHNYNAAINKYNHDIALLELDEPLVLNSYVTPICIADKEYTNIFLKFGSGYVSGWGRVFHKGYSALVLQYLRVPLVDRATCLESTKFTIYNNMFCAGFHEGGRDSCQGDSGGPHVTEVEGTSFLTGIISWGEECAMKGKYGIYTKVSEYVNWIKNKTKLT ?
0.0432
